Quick reference for %HSA among some compounds
target: human serum albumin (HSA) (Homo sapiens, UniProt P02768); test: HSA-HPLC, biomimetic chromatography on Chiralpak HSA column; assay type: in vitro ADME; parameters: purchased Daicel Chiral Technologies, West Chester, PA, USA; conditions: pH 7.4, recalculated from logKHSA
Sequence (P02768 25-609): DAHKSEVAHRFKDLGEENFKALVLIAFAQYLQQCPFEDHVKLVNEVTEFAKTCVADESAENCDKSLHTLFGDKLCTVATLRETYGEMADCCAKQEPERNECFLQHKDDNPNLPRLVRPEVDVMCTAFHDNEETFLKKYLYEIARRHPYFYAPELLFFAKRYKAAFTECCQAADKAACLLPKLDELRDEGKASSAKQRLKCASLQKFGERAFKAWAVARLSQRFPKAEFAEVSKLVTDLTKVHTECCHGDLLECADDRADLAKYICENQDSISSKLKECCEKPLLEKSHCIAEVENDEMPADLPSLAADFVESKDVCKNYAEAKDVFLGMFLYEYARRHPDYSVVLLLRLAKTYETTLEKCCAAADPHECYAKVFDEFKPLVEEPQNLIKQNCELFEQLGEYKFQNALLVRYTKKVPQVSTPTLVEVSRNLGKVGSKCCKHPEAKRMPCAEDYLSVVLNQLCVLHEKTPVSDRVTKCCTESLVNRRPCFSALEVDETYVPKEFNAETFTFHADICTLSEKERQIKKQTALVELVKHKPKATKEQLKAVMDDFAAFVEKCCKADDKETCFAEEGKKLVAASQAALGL
The figure you give is taken to be in %; do not add the unit.

> print(dat)
                           substance.smiles  measured.result
1  COc1ccccc1N1CCN(Cc2ccc(CN3C(=O)c4ccccc4S3(=O)=O)cc2)CC1            94.87
2  O=C1c2ccccc2S(=O)(=O)N1CCCCCCN1CCN(c2cccc3ccccc23)CC1            99.25
3  O=C1c2ccccc2S(=O)(=O)N1CCCCCCN1CCN(c2ccccc2F)CC1            91.90
4  O=C1c2ccccc2S(=O)(=O)N1CCCCCCN1CCN(c2cccc(Cl)c2)CC1            99.06
5  O=C1c2ccccc2S(=O)(=O)N1CCCCCCN1CCN(c2ccccc2)CC1            91.87
6  O=C1c2ccccc2S(=O)(=O)N1CCCCCCN1CCN(c2cccc3sccc23)CC1            98.37
7  O=C1c2ccccc2S(=O)(=O)N1CCCCCCN1CCN(c2nsc3ccccc23)CC1            95.36

# input for lookup
Consider the compound shown here: COc1ccccc1N1CCN(CCCCCCN2C(=O)c3ccccc3S2(=O)=O)CC1 What is its recorded %HSA?
73.28

* * *

molecular target: human serum albumin (HSA) (Homo sapiens); assay: HSA-HPLC, biomimetic chromatography on Chiralpak HSA column; type: in vitro ADME; design: purchased Daicel Chiral Technologies, West Chester, PA, USA; details: pH 7.4, recalculated from logKHSA
Decide using %HSA alone. Strictly below 80%: True. Equal to or above 80%: False.

Please review the following examples before continuing.
> print(dat)
                           substance.smiles  assigned.label
1  COc1cccc(N2CCN(CCCCCCN3C(=O)c4ccccc4S3(=O)=O)CC2)c1           False
2  O=C1c2ccccc2S(=O)(=O)N1CCCCCCN1CCN(c2cccc(C(F)(F)F)c2)CC1           False
3  O=C1c2ccccc2S(=O)(=O)N1CCCCN1CCN(c2cccc(Cl)c2Cl)CC1            True
4  O=C1c2ccccc2S(=O)(=O)N1CCCCCCN1CCN(c2ccc(Cl)cc2)CC1           False
5  O=C1c2ccccc2S(=O)(=O)N1CCCCCN1CCN(c2ccccn2)CC1           False

Consider the record given below.
Answer whether the compound O=C1c2ccccc2S(=O)(=O)N1CCCCCN1CCN(c2ccc(Cl)cc2)CC1 has %HSA strictly less than 80%
False

* * *

test: Fast gradient RP-HPLC on C18 column (CHI lipophilicity); assay type: physicochemical; conditions: from chromatographically determined CHI on nonionized forms (pH 10.6); CHI LogP = 0.054 × CHI − 1.467
Quick reference for CHI LogP among some molecules
Would you mind answering with just the numeric figure?

> print(dat)
                           substance.smiles  measured.result
1  O=C1c2ccccc2S(=O)(=O)N1CCCCCN1CCN(c2ccc(Cl)cc2)CC1             3.98
2  O=C1c2ccccc2S(=O)(=O)N1CCCCCCN1CCN(c2cccc3sccc23)CC1             4.40
3  O=C1c2ccccc2S(=O)(=O)N1CCCCCCN1CCN(c2cccc3ccccc23)CC1             4.91

Consider the molecule shown here: COc1ccccc1N1CCN(CCCCN2C(=O)c3ccccc3S2(=O)=O)CC1 What is its recorded CHI LogP?
4.44
